- System: Aspergillus fumigatus ATCC 90906
- test.description: Antifungal susceptibility testing, Aspergillus fumigatus
- Format: cell-based
measurement.name: A fu MFC (µg/mL)
Reply numerically in µg/mL, unit not repeated.

C[n+]1cc2c(c3ccc(C(F)(F)F)cc3n2CCCCCC2CCCCC2)c2ccccc21.[I-] : 10
C[n+]1cc(N(CCCCCC2CCCCC2)c2cccc(C(F)(F)F)c2)cc2ccccc21.[I-] : 10
c1ccc(Nc2cc3ccccc3[n+](CCCCCC3CCCCC3)c2)cc1 : 25
C[n+]1cc2c(c3cc(Cl)ccc3n2CCCCCC2CCCCC2)c2ccccc21.[I-] : 25
C[n+]1cc(N(CCCCCC2CCCCC2)c2ccc(OC(F)(F)F)cc2)cc2ccccc21.[I-] : 2.5
COc1ccc(N(CCCCCC2CCCCC2)c2cc3ccccc3[n+](C)c2)cc1.[I-] : 10
C[n+]1cc(N(CCCCCC2CCCCC2)c2ccc(Cl)cc2)cc2ccccc21.[I-] : 10

// query Give reported A fu MFC for COc1cccc(N(CCCCCC2CCCCC2)c2cc3ccccc3[n+](C)c2)c1.[I-] (Aspergillus fumigatus ATCC 90906)
// result 10

----------
Where a name gives a salt, the structure may show the parent alone.
measurement.name: melting point

Below, 3 compounds whose answers are already recorded.
C[n+]1cccc(N(CCCCCC2CCCCC2)c2ccccc2)c1 [JRE-4-1-1] : 124 to 125 °C
FC(F)(F)c1ccccc1Sc1cc2ccccc2[n+](CCCCC[n+]2cc(Sc3ccccc3C(F)(F)F)cc3ccccc32)c1 [XYZ-IV-45] : 175 to 176 °C
Clc1ccc(Nc2cc3ccccc3[n+](CCCCCc3ccccc3)c2)cc1 [JRE-2-89-1] : 182 to 183 °C

// query Look up and state reported melting point for c1ccc(Nc2cc3ccccc3[n+](CCCCCC3CCCCC3)c2)cc1 (as salt: iodide) [JRE-3-19-1]
// result 156 to 158 °C

// query Look up and state reported melting point for FC(F)(F)c1ccccc1Sc1cc2ccccc2[n+](CCCCC[n+]2c3ccccc3cc3[nH]c4ccccc4c32)c1 [XYZ-IV-52]
// result 154 to 156 °C

// query Look up and state reported melting point for FC(F)(F)c1cccc(Sc2cc3ccccc3[n+](CCCCC[n+]3cc(Sc4cccc(C(F)(F)F)c4)cc4ccccc43)c2)c1 [XYZ-IV-55]
// result 167 to 168 °C

// query Look up and state reported melting point for FC(F)(F)c1ccccc1Sc1cc2ccccc2[n+](CCCCCc2ccccc2)c1.[I-]
// result 227 to 229 °C

// query Look up and state reported melting point for C[n+]1cc2c(c3cc(C(F)(F)F)ccc3n2CCCCCC2CCCCC2)c2ccccc21.[I-] [JRE-4-17-1]
// result 231 to 233 °C

----------
- Test system: MRSA
- test.description: Antibacterial susceptibility testing, MRSA
- Assay type: cell-based, methicillin resistant Staphylococcus aureus
- test.parameters: Table 2
Below: a set of entries, each annotated with reported MRSA IC50.
Reply numerically in µg/mL, unit not repeated.

C[n+]1cc(N(CCCCCC2CCCCC2)c2cccc(C(F)(F)F)c2)cc2ccccc21.[I-] [JRE-3-61-1] : 0.45

// query Look up and state reported MRSA IC50 for C[n+]1cc(N(CCCCCC2CCCCC2)c2ccc(OC(F)(F)F)cc2)cc2ccccc21.[I-] [JRE-3-99-1]
// result 0.65
